target: Serotonin 2 receptors; 5-HT2a & 5-HT2c (Homo sapiens) (UniProt P28223+P28335); experiment: Selectivity at 5-HT 2C receptor compared to serotonin 5-HT 2A receptor; format: protein assay
Sequence (P28223 whole entry, looked up): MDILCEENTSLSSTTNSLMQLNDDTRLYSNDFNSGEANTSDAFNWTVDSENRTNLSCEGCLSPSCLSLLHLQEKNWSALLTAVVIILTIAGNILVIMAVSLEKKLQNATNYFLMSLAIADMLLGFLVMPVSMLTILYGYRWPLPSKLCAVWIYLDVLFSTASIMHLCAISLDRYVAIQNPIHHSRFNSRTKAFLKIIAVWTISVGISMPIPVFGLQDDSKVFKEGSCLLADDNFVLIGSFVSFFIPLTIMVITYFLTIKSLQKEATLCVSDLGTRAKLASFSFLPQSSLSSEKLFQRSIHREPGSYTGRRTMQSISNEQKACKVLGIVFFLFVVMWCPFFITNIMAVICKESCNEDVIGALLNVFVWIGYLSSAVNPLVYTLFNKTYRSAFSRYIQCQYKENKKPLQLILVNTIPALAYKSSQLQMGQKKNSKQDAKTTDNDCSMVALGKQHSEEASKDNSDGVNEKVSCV
Sequence (P28335 whole entry, looked up): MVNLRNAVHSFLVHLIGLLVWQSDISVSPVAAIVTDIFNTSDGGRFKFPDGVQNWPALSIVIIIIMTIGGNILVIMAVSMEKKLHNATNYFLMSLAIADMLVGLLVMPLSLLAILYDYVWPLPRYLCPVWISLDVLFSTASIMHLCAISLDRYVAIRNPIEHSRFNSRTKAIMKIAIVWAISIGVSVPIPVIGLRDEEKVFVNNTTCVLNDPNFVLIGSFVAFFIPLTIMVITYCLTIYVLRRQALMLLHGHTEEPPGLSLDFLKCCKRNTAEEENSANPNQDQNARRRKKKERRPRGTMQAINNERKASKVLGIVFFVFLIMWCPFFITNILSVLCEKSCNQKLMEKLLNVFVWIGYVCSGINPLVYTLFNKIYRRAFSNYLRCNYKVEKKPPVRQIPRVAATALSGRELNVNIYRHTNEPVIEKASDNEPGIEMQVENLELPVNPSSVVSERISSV
Would you mind telling me the reported Selectivity of each entry?

Retrieve Selectivity measured for `Cc1cc2c(cc1Cl)N(C(=O)Nc1ccc(OCc3nccs3)nc1)CC2` and print it.
> 160

Fill in reported Selectivity for this entry: `Cc1cc2c(cc1Cl)N(C(=O)Nc1ccc(OCc3cccnc3)nc1)CC2`
> 30

Hello, please tell me recorded Selectivity for this one: `Cc1cc2c(cc1Cl)N(C(=O)Nc1ccc(OCc3ccccn3)nc1)CC2`
> 320

Return Selectivity (reported value) for this compound: `O=C(Nc1ccc(OCc2ccccn2)nc1)N1CCc2cc(Cl)ccc21`
> 160
